Listing: phosphorylation enrichment of selected sequences
target: Hck (UniProt P08631); experiment: phosphorylation enrichment, bacterial display (enrichment ratio); higher = better substrate or ligand; peptides without Tyr show the background;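 also: 11-residue human phosphosite peptides and single-mutation variants displayed on the E. coli surface, counted by deep sequencing, each peptide's frequency after selection divided by its frequency in the unselected input library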;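 also: frequency after pTyr selection over input frequency; kinase dosed for 20-30% of maximal phosphorylation in three min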
Sequence (P08631 whole entry, looked up): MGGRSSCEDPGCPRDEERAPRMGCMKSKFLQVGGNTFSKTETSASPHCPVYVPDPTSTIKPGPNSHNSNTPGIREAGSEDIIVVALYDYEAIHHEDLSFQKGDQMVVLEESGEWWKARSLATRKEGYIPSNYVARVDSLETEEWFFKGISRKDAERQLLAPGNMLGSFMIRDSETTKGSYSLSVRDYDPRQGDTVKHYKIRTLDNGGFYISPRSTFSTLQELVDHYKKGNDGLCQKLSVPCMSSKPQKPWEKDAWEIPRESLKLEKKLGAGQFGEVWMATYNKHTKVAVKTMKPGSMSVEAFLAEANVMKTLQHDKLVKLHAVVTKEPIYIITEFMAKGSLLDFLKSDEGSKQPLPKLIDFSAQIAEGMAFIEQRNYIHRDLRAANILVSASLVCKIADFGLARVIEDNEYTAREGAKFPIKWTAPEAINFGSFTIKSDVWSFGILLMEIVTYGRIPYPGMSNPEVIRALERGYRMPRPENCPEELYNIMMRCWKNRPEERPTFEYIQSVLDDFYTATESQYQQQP

Residue sequence: RGDTVYTVNCM [KBTBD13_Y404_R408C]
Target or test system: Hck (UniProt P08631)
phosphorylation enrichment: 1.21

Residue sequence: YQLPYYNMVPS [BMPR1A_Y458]
Target or test system: Hck (UniProt P08631)
phosphorylation enrichment: 3.28

Residue sequence: QTLTDYDIRFF [CSNK2A1_Y131_YF]
Target or test system: Hck (UniProt P08631)
phosphorylation enrichment: 0.691

Residue sequence: GEDEPYAEPFA [APBA1_Y183_S184A_YF]
Target or test system: Hck (UniProt P08631)
phosphorylation enrichment: 0.593

Residue sequence: ENELTYFCFKK [CD59_Y86_C89Y_YF]
Target or test system: Hck (UniProt P08631)
phosphorylation enrichment: 3.63

Residue sequence: EELLRYAIVTP [POC5_Y37_H36R]
Target or test system: Hck (UniProt P08631)
phosphorylation enrichment: 0.439

Residue sequence: KAIMTYVSSFY [ACTN4_Y260]
Target or test system: Hck (UniProt P08631)
phosphorylation enrichment: 0.554

Residue sequence: NQLNDYIFSFD [RARS1_Y516_R512Q]
Target or test system: Hck (UniProt P08631)
phosphorylation enrichment: 0.546

Residue sequence: NVPILYTASQA [CTNNA1_Y222]
Target or test system: Hck (UniProt P08631)
phosphorylation enrichment: 0.444

Residue sequence: LLINKYGLSAH [SCP2_Y151]
Target or test system: Hck (UniProt P08631)
phosphorylation enrichment: 0.428

Residue sequence: DEDYLCREELA [POR_Y575_Y575C]
Target or test system: Hck (UniProt P08631)
phosphorylation enrichment: 0.99

Residue sequence: CTTVHYNYMCN [TP53_Y234_I232V]
Target or test system: Hck (UniProt P08631)
phosphorylation enrichment: 0.468

Residue sequence: VMTLDYSKTVV [SETD2_Y770_V768L]
Target or test system: Hck (UniProt P08631)
phosphorylation enrichment: 0.439

Residue sequence: LEQQKYTVTVD [IKBKB_Y199]
Target or test system: Hck (UniProt P08631)
phosphorylation enrichment: 0.726

Residue sequence: ASELGYQFQAI [UROD_Y133_V134Q]
Target or test system: Hck (UniProt P08631)
phosphorylation enrichment: 0.468

Residue sequence: FSAPNYCFRCG [PPP2CA_Y265_YF]
Target or test system: Hck (UniProt P08631)
phosphorylation enrichment: 0.374

Residue sequence: ENAGYYFRVSA
Target or test system: Hck (UniProt P08631)
phosphorylation enrichment: 0.476

Residue sequence: SEKIVYGHVDD [ACO2_Y71_L74V]
Target or test system: Hck (UniProt P08631)
phosphorylation enrichment: 0.479

Residue sequence: IDAICYYRMEN [NPHS2_Y194]
Target or test system: Hck (UniProt P08631)
phosphorylation enrichment: 0.8

Residue sequence: RHFSSYSQMEN [PKP1_Y120_R116H]
Target or test system: Hck (UniProt P08631)
phosphorylation enrichment: 0.551

Residue sequence: ERCAQYKKDGA [ALDOA_Y138]
Target or test system: Hck (UniProt P08631)
phosphorylation enrichment: 0.396

Residue sequence: TTICKYITPME [GUCY2C_Y839_S840I]
Target or test system: Hck (UniProt P08631)
phosphorylation enrichment: 0.469

Residue sequence: RRVLVYGGRGA [QDPR_Y16]
Target or test system: Hck (UniProt P08631)
phosphorylation enrichment: 0.597

Residue sequence: PLLEYYWDIFT [CDAN1_Y713_R714W]
Target or test system: Hck (UniProt P08631)
phosphorylation enrichment: 0.79

Residue sequence: ENRKFYMDLKE [PURA_Y156_YF]
Target or test system: Hck (UniProt P08631)
phosphorylation enrichment: 0.469

Residue sequence: IAINKYEVSLI [MYO7A_Y2136_G2137E]
Target or test system: Hck (UniProt P08631)
phosphorylation enrichment: 0.493

Residue sequence: LVMFTYAIFGM [SCN1A_Y1684_I1683T]
Target or test system: Hck (UniProt P08631)
phosphorylation enrichment: 1.48

Residue sequence: EDNPEYMRLRN [ADD2_Y31_D28N]
Target or test system: Hck (UniProt P08631)
phosphorylation enrichment: 0.489

Residue sequence: CHSDDYVHISL [TSC1_Y406]
Target or test system: Hck (UniProt P08631)
phosphorylation enrichment: 0.554
